# Test system: Plasmodium falciparum
# protocol-summary: Confirmatory screen in NF54 nanoGlo assay, in single point, at 2uM, 72h
# Type: functional, Erythrocyte
# measurement-parameters: timepoint 72 hour
Hit rate of the full screen: of about 4,800 compounds, about 420 (8.8%) showed an effect of 50% or more. Many of the other results were omitted from the sample, so strong results are more common in it than they were.
// map % Inhibition to label using 0 (below -10%), 1 (-10% to below 10%), 2 (10% or more)

Input line: Consider CC[C@@H](CO)NCc1cccc(OC)c1OCC(=O)NC(C)(C)C . To which % Inhibition class does it belong?
Output line: 1

Input line: GET /class?item= Cc1ccc2nc(-c3cccc(NC(=O)c4ccc5c(c4)OCO5)c3)oc2c1
Output line: 0

Input line: Hi, small favor: classify CCc1cc(N2C[C@@H]3NC(=O)CN(C)Cc4ccc(OC)c(c4)Oc4cccc(c4)CO[C@H]3C2)nc(N(C)C)n1 by its % Inhibition when you get a moment.
Output line: 2

Input line: Textbook exercise: identify the category of the compound given here, COc1cccc(CNC(C)(C)C)c1OCC(=O)NC(C)(C)C , according to its measured value.
Output line: 1

Input line: Would you mind sorting O=C(O)c1cc2c(cc1C(=O)Nc1ccc(Cl)cc1)=[O+]c1ccccc1-c1ccccc1[O+]=2 into the appropriate category?
Output line: 0

* * *

Could you please report measured % Inhibition for the items listed next?
# Tested on: Plasmodium falciparum
# protocol-summary: Confirmatory screen in NF54 nanoGlo assay, in single point, at 2uM, 72h
# Type: functional, Erythrocyte
# measurement-parameters: timepoint 72 hour
Screen size: about 4,800 compounds; about 420 (8.8%) showed an effect of 50% or more. This is one part of a sample in which strong results are shown more often than they occur.
Give bare numbers, in %.

// solved cases for % Inhibition follow
Input line: # query: % Inhibition | item CC(C)[C@@H]1CCc2ccccc2N1Cc1nc(N)nc(N(C)C)n1 | system: Plasmodium falciparum
Output line: -4

Input line: Which % Inhibition is reported with Plasmodium falciparum for this entry: CS(=O)(=O)N1CCC[C@H](Cn2nnnc2C=Cc2ccccc2)C1 ?
Output line: 8

Input line: Item: c1ccc(Nc2nc(-c3ccccc3)cc(-c3ccccc3)n2)cc1 Test system: Plasmodium falciparum Read-out: % Inhibition Value: ?
Output line: 3

Batch request: % Inhibition for each of the following compounds.
1. CC(=O)N(c1ccccc1)[C@H]1C[C@@H](C)N(C(=O)C(F)(F)F)c2ccccc21
2. CCS(=O)(=O)N1CCN(c2nc(Cc3ccc(C)cc3)nc3c2c(C)nn3-c2ccccc2)CC1

Output line:
1: 9; 2: -3

* * *

# Tested on: Plasmodium falciparum
# protocol-summary: Confirmatory screen in NF54 nanoGlo assay, in single point, at 2uM, 72h
# Format: functional, Erythrocyte
# measurement-parameters: timepoint 72 hour
The campaign covered roughly 4,800 compounds. About 420 (8.8%) showed an effect of 50% or more. The entries come from a sample that favours strong results as a whole.
measurement-label: % Inhibition (%)
Answers are plain numbers, in %.

Some compounds with recorded % Inhibition:
Input line: Please give the measured % Inhibition for this compound: O=C(Nc1ccncc1)c1ccc2ccccc2n1
Output line: 0

Input line: Need % Inhibition of Cc1ccc(CC(=O)N2C[C@H](c3ccccc3)C(c3ccc(Cl)cc3)=N2)cc1 , thanks.
Output line: 6

Input line: So what's the measured % Inhibition for this one? COc1ccc2c(NC(=O)Cc3c(C)noc3C)n[nH]c2c1
Output line: 0

I need % Inhibition for every entry listed below, if you could help.
1. COc1ccc(CNC(=O)Cn2c(=O)n(Cc3cccc(OC)c3)c(=O)c3sccc32)cc1
2. Clc1cccc(N2CCN(Cc3ccc(OC4CCNCC4)cc3)CC2)c1
3. COc1ccc2c(c1)/C(=C1/SC(C(C)=O)=C(c3ccccc3)S1)C(=S)C(C)(C)N2C(=O)Nc1ccc(Cl)c(Cl)c1
4. Cc1cnn(Cc2cc(C(=O)N(C)Cc3nc4ccccc4n3C)no2)c1
5. Cc1ccc(Cc2nc(N3CCCN(C(=O)c4ccc(C)cc4)CC3)c3cnn(-c4ccccc4)c3n2)cc1
6. O=C(Nc1ncc(CCO)s1)[C@@H]1CCCN1C(=O)Cc1cccs1

Output line:
1: 1; 2: 27; 3: -7; 4: -6; 5: 3; 6: 0

List reported % Inhibition for each of these compounds:
1. COc1ccc(C(=O)Cn2nc(C)cc2C)cc1
2. Cc1nc([C@H](C)NC(=O)c2ccc(S(C)(=O)=O)cc2)cs1

Output line:
[-4, 3]
